Target: T1, biotinylated native human ApoC3 (human, UniProt P02656 21-99, biotinylated (site not stated))
T1 construct: also called biotinylated human ApoC3
T1 sequence (P02656 21-99): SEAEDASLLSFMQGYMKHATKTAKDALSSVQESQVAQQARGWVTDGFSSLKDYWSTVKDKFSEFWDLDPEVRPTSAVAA
Experiment: SPR, IgG1 over biotinylated ApoC3 on SA chip, pH 7.4
Below, each of the binders is paired with its reported koff value.
Write it as a number; the unit s⁻¹ goes unstated.

Answered cases to consult:
mAb19 (antibody, IgG1, V domains shown, Produced as full length IgG1 (kappa) in ExpiCHO-S cells; also called humanized anti-ApoC3 antibody mAb19) VH: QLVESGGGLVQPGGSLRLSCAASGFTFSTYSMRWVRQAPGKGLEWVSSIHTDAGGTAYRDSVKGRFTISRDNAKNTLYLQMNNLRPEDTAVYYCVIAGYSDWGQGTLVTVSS VL: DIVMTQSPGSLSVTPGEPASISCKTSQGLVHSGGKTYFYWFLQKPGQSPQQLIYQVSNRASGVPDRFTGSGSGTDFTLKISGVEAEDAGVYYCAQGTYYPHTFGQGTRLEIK	2.9e-05
mAb2 (antibody, IgG1, V domains shown, Produced as full length IgG1 (kappa) in ExpiCHO-S cells; also called humanized anti-ApoC3 antibody mAb2) VH: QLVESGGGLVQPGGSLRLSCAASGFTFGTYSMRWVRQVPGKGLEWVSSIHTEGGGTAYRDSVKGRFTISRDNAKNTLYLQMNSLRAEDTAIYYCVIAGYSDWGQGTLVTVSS VL: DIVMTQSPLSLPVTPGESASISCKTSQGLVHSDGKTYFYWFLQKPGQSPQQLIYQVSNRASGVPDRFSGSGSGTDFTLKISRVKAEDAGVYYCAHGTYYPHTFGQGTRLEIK	1.35e-05
5E5VH5_VL8 human IgG1 (antibody, V domains shown, Tested as human IgG1; the tested lot is not tied to them in words) VH: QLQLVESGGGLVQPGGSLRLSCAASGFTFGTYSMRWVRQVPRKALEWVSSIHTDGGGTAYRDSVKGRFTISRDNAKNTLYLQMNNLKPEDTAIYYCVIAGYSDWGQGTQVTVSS VL: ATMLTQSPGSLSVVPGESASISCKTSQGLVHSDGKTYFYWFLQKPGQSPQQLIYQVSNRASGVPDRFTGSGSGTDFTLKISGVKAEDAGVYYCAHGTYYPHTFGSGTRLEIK	0.000173
mAb5 (antibody, IgG1, V domains shown, Produced as full length IgG1 (kappa) in ExpiCHO-S cells; also called humanized anti-ApoC3 antibody mAb5) VH: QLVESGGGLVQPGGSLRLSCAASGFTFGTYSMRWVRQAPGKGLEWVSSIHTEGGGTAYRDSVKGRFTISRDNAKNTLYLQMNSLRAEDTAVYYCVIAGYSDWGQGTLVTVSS VL: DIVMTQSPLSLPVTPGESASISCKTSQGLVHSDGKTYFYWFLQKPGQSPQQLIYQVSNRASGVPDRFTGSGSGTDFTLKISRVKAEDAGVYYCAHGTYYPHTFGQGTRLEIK	3.51e-05
mAb8 (antibody, IgG1, V domains shown, Produced as full length IgG1 (kappa) in ExpiCHO-S cells; also called humanized anti-ApoC3 antibody mAb8) VH: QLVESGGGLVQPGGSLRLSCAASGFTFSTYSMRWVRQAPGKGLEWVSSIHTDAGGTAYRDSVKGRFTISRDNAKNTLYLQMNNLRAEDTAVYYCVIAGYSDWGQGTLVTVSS VL: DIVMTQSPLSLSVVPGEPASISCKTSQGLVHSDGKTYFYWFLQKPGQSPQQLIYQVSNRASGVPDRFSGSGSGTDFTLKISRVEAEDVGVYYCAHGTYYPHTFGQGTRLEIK	2.41e-05
mAb6 (antibody, IgG1, V domains shown, Produced as full length IgG1 (kappa) in ExpiCHO-S cells; also called humanized anti-ApoC3 antibody mAb6) VH: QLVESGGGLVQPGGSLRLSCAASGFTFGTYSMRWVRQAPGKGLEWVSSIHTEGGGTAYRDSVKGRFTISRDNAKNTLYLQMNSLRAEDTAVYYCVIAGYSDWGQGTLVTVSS VL: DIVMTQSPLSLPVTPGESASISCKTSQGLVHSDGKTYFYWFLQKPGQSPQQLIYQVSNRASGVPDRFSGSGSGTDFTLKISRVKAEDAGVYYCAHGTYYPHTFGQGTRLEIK	1.33e-05
mAb4 (antibody, IgG1, V domains shown, Produced as full length IgG1 (kappa) in ExpiCHO-S cells; also called humanized anti-ApoC3 antibody mAb4) VH: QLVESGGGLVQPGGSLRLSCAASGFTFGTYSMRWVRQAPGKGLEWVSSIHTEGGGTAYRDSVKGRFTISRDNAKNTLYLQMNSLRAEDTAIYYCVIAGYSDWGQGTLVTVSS VL: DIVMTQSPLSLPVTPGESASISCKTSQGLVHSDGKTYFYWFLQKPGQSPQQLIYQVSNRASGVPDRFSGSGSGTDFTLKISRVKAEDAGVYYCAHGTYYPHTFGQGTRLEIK	1.13e-06
mAb9 (antibody, IgG1, V domains shown, Produced as full length IgG1 (kappa) in ExpiCHO-S cells; also called humanized anti-ApoC3 antibody mAb9) VH: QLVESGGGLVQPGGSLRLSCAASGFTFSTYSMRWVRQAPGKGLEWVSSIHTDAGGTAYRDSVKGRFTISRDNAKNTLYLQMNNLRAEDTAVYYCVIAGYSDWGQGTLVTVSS VL: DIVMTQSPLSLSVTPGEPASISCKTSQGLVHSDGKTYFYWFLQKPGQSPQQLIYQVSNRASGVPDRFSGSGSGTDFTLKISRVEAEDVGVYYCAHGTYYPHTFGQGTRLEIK	3.32e-05

Q) Need koff, item mAb12 (antibody, IgG1, V domains shown, Produced as full length IgG1 (kappa) in ExpiCHO-S cells; also called humanized anti-ApoC3 antibody mAb12) VH: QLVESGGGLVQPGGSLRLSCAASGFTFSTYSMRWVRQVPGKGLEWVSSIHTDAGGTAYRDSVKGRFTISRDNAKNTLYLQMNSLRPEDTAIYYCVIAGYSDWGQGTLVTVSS VL: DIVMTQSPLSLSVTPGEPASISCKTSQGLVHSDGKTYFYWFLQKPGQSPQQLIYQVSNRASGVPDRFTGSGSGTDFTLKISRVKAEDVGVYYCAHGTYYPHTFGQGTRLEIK
A) 1.49e-05

Q) Need koff, item mAb7 (antibody, V domains shown, Produced as full length IgG1 (kappa) in ExpiCHO-S cells; also called humanized anti-ApoC3 antibody mAb7) VH: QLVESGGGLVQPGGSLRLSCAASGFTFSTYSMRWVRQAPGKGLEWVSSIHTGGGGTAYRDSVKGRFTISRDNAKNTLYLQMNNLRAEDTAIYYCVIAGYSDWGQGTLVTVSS VL: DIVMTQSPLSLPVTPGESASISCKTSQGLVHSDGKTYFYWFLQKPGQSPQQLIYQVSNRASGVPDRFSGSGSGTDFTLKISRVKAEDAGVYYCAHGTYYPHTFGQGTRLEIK
A) 3.37e-05
